Entries and their pIC50
assay: Inhibition of recombinant rat/human ADAMTS12 hybrid using HiLyteFluor-488 DELSSMVLELRGLRT-K(QXL520)-E-NH2 as substrate incubated for 120 mins and measured by FRET assay
pIC50 here is simply -log10 of the concentration when that concentration is written in mol/L.

The cases that follow already have their pIC50 on record.
Input line: What value of measured pIC50 is listed for O=C1NC(=O)C(CNC(=O)c2cnn(-c3ccccc3)n2)(C2CCOCC2)N1 (racemic) ?
Output line: 5.00

Input line: What value of measured pIC50 is listed for O=C1NC(=O)C(CNC(=O)c2cnn(-c3ccc(F)c(Cl)c3)n2)(c2nccs2)N1 (racemic) ?
Output line: 5.92

Then there is this molecule:
Input line: What value of measured pIC50 is listed for O=C1NC(=O)[C@](CNC(=O)c2cnn(-c3cc(F)c(F)c(F)c3)n2)(C2CC2)N1 ?
Output line: 5.96

###

experiment: Inhibition of recombinant rat/human ADAMTS12 hybrid using HiLyteFluor-488 DELSSMVLELRGLRT-K(QXL520)-E-NH2 as substrate incubated for 120 mins and measured by FRET assay
QUANTITY_MEASURED: log10 of IC50 (log10 of the value in µM)
Values below are the log10 of the recorded IC50, with µM as the unit.

Input line: What value of measured log10 of IC50 is listed for CCCCC1(CNC(=O)c2cnn(-c3ccccc3)n2)NC(=O)NC1=O (stereo in doubt) ?
Output line: 1.28

Input line: What value of measured log10 of IC50 is listed for O=C1NC(=O)C(CNC(=O)c2cnn(-c3ccccc3)n2)(c2ccccn2)N1 (racemic) ?
Output line: 0.68

Input line: What value of measured log10 of IC50 is listed for O=C1NC(=O)C(CNC(=O)c2cnn(-c3ccc(F)cc3)n2)(CC2CC2)N1 (stereo in doubt) ?
Output line: 0.79

Input line: What value of measured log10 of IC50 is listed for O=C1NC(=O)C(CNC(=O)c2cnn(-c3ccc(F)cc3)n2)(C2CCCCC2)N1 (configuration not stated) ?
Output line: 0.61

Input line: What value of measured log10 of IC50 is listed for Cc1ncsc1C1(CNC(=O)c2cnn(-c3ccc(F)cc3)n2)NC(=O)NC1=O (racemic) ?
Output line: 0.40

Input line: What value of measured log10 of IC50 is listed for O=C1NC(=O)[C@](CNC(=O)c2cnn(-c3ccc(F)cc3)n2)(C2CC2)N1 ?
Output line: 0.15

Input line: What value of measured log10 of IC50 is listed for CCC1(CNC(=O)c2cnn(-c3ccc(F)cc3)n2)NC(=O)NC1=O (racemic) ?
Output line: 1.11

Input line: What value of measured log10 of IC50 is listed for O=C1NC(=O)[C@](CNC(=O)c2cnn(-c3ccc(F)cc3F)n2)(C2CC2)N1 ?
Output line: 0.63

###

Entries and their pIC50
assay: Inhibition of recombinant rat/human ADAMTS12 hybrid using HiLyteFluor-488 DELSSMVLELRGLRT-K(QXL520)-E-NH2 as substrate incubated for 120 mins and measured by FRET assay
pIC50 here is simply -log10 of the concentration when that concentration is written in mol/L.

Input line: What value of measured pIC50 is listed for O=C1NC(=O)[C@](CNC(=O)c2cnn(-c3cccc(Cl)c3)n2)(C2CC2)N1 ?
Output line: 6.35

Input line: What value of measured pIC50 is listed for O=C1NC(=O)C(CNC(=O)c2cnn(-c3ccc(F)cc3)n2)(CC2CC2)N1 (racemic) ?
Output line: 4.30

Input line: What value of measured pIC50 is listed for O=C1NC(=O)C(CNC(=O)c2cnn(-c3ccc(F)cc3)n2)(c2ncsc2C(F)(F)F)N1 (racemic) ?
Output line: 5.18

Input line: What value of measured pIC50 is listed for O=C1NC(=O)C(CNC(=O)c2nc(-c3ccccc3)no2)(CC2CC2)N1 (stereo not drawn) ?
Output line: 5.54

Input line: What value of measured pIC50 is listed for CCCCC1(CNC(=O)c2cnn(-c3ccccc3)n2)NC(=O)NC1=O (racemic) ?
Output line: 4.82

Others:
Input line: What value of measured pIC50 is listed for CC(C)C1(CNC(=O)c2cnn(-c3ccc(F)c(F)c3)n2)NC(=O)NC1=O (stereo in doubt) ?
Output line: 6.04

Input line: What value of measured pIC50 is listed for O=C1NC(=O)C(CNC(=O)c2cnn(-c3ccc(Cl)c(F)c3)n2)(c2nccs2)N1 (stereo in doubt) ?
Output line: 6.40

This collection of values is drawn from ChEMBL document CHEMBL5052852.
